TESTED_ON: PI3-kinase p110-alpha/p85-alpha (Homo sapiens, UniProt P42336)
Sequence (P27986 whole entry): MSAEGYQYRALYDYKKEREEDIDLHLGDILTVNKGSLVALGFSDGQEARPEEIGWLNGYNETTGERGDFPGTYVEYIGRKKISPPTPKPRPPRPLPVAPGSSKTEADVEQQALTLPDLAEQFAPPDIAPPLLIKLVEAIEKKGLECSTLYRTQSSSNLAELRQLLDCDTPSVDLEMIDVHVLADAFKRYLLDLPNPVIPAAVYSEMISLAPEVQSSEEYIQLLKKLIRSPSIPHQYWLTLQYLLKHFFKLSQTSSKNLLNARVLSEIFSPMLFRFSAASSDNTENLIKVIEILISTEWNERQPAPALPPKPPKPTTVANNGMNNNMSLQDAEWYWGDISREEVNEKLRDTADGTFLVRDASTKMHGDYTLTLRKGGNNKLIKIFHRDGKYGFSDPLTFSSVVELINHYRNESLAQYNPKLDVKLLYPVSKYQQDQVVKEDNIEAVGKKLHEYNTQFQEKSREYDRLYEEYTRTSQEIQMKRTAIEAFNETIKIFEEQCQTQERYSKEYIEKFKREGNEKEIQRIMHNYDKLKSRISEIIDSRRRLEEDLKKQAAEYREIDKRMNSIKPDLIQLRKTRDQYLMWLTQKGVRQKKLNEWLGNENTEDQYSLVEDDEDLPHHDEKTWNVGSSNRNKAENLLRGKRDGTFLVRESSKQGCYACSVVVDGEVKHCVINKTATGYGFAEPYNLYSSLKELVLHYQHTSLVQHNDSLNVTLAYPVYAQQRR
Sequence (P42336 whole entry): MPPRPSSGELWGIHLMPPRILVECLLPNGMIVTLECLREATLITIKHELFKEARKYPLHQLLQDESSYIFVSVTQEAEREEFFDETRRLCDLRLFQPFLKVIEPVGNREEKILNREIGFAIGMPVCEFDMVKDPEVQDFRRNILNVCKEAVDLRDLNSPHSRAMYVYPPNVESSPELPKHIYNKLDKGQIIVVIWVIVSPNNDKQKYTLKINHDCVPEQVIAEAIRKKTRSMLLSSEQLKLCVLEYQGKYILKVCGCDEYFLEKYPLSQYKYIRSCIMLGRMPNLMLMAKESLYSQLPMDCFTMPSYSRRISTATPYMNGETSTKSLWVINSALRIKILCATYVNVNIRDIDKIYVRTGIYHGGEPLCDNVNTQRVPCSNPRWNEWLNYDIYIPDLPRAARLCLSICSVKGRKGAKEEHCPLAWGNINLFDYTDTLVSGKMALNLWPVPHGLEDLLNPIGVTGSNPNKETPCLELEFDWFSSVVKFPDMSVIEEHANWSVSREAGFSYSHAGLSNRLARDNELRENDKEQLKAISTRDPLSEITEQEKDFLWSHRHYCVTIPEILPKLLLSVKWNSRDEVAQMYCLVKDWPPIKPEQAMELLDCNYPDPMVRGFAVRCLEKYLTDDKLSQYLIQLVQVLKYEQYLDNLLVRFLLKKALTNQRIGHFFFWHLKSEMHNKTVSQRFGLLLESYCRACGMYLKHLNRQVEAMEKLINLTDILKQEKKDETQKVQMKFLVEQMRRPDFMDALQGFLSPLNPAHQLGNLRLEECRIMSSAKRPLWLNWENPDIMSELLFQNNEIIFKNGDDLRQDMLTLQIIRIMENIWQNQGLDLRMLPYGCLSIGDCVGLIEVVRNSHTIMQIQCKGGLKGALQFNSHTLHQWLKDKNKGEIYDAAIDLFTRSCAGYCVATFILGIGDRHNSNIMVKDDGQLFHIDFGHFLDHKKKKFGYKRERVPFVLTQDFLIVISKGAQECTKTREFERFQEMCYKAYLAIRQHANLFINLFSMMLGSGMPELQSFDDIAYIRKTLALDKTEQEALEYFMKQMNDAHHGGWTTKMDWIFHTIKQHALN
TEST_DETAILS: Inhibition of human recombinant P110alpha/p85alpha using phosphatidyl inositol as substrate after 1 hr by ADP-Glo Kinase assay
Parameter: IC50. Scope: all listed entries.
// return numeric value only (unit: µM, not printed)

Take a look at these entries with their results.
C[C@]12CCC(=O)c3coc(c31)C(=O)C[C@@H]2O (racemic) = 0.178
C[C@]12CCC(=O)c3coc(c31)C(=O)[C@@H]1[C@@H]2CC[C@]2(C)C(=O)CC[C@@H]12 = 0.339

Now for another entry.
Problem: What value of IC50 has been recorded for this entry: C=CCN/C=C1/C(=O)CC[C@@]2(C)C1=C(O)C(=O)[C@@H]1[C@@H]2CC[C@]2(C)C(=O)CC[C@@H]12
Result: 0.271
